Target: T1, recombinant human ADAMTS5 (R&D Systems cat #2198-AD) (human, UniProt Q9UNA0 262-622, limits assumed)
T1 sequence: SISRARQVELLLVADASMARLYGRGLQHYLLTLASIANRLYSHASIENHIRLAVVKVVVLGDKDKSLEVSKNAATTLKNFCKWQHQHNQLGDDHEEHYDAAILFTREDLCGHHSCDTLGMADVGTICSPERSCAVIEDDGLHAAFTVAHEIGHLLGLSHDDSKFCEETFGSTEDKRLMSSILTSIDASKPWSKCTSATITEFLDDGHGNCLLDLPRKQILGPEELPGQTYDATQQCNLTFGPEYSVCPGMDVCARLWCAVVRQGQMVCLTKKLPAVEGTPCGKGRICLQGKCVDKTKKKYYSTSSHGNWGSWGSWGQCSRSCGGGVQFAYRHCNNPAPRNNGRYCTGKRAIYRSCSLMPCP
Assay: cell-based or functional assay
Listed here: items and their measured FRET assay vi (U/min), periplasmic extract.

Record excerpt, results attached:
| BINDER | REPORTED RESULT |
| --- | --- |
| Nanobody 2F03 (VHH, tagged as tested (anti-Flag detection, IMAC); also called 02F03; 2F3) VHH: EVQLVESGGGLVQAGGSLRLSCAASGRTVSSYAMGWFRLAPGKEREFVAGISRSAERTYYVDSLKGRFTISRDSAKNTVYLHMNRLKPEDTAVYYCAADLDPNRIFSREEYAYWGQGTLVTVSS | -1 U/min |
| Nanobody 2D07 (VHH, tagged as tested (anti-Flag detection, IMAC); also called 02D07; 2D7) VHH: EVQLVESGGGLVQAGGSLRLSCSFSGPGRTFARYAMGWFRQAPGKNRDFITGISGSGDSTYYVYPMKDRFTISRDNAKNMVYLQMNALKPEDTAVYYCAADREINRIANDKELDFWGQGTLVTVSS | -1 U/min |
| Nanobody 13E02 (VHH) VHH: EVQLVESGGGLVQAGGSLRLSCVASGSIFSIDAMGWYRQAPGKERELVASVTTGASPNYGDSVTGRFTASRDRAKNALYLQMNSLKPEDTAVYYCNLIMTIPGGSQIMYWGQGTLVTVSS | 0 U/min |
| Nanobody 3B03 (VHH, tagged as tested (anti-Flag detection, IMAC); also called 03B03) VHH: EVQLVESGGDLVQPGGSLRLSCAASGSDVVVNDMGWYRQAPGKQRELVADITTGGRTNYADSVKGRFTISRDNVKNTVYLQMNSLKPEDTAVYYCNAQVGDSDDDVWYAYWGQGTLVTVSS | 2 U/min |

FRET assay vi (U/min), periplasmic extract measured on Nanobody 2C10 (VHH, tagged as tested (anti-Flag detection, IMAC); also called 02C10) VHH: EVQLVESGGGLVQAGGSLRLSCATSGFTFSPYYMGWFRQAPGKERDFVAAITRSRGTTYYLDSTEGRFTISRDNAKNTMYLQMNSLNPEDTAVYYCAAGRSPGDPSRTYLYEYWGQGTLVTVSS = 2 U/min

The reported measurements were obtained from patent US20200317802A1.
